- System: RPMI-8226 leukemia
- test-summary: NCI tumour cell line growth inhibition, 48 h

| chemical-smiles | TGI |
| --- | --- |
| c1cnn(CN(Cn2cccn2)Cn2cccn2)c1 | > 100 µM |
| COc1ccc(C(=O)c2cc(C)c(OC)c(C)c2)c(OC)c1O | > 62.6 µM |
| CCc1cc(Cc2cc(CC)c(NC(=O)C(=O)CC(=O)c3sc(-c4cccnc4)nc3C)c(CC)c2)cc(CC)c1NC(=O)C(=O)CC(=O)c1sc(-c2cccnc2)nc1C | > 100 µM |
| COc1ccc(-c2cc(-c3cc(C)cc(Br)c3O)no2)cc1 | > 100 µM |
| Cc1ccc2c3c1O[C@H]1c4[nH]c5ccccc5c4C[C@@]4(O)[C@@H](C2)N(CC2CC2)CC[C@]314 | 29.4 µM |
| COc1cc(-c2nc3ccccn3c2/N=C/c2cc(Br)cc(Br)c2O)ccc1O | > 100 µM |
| CCOC(=O)/C(C)=C(/O)C(=O)OCC | > 100 µM |
| O=C(Nc1ccccc1-c1nc2ccccc2[nH]c1=O)c1ccccc1 | 44.9 µM |
| N#CCCC(CCC#N)(CCC#N)NO | > 100 µM |
| CNC(=S)/N=C(\N)N(C)C | > 100 µM |
| N#Cc1c(-c2ccccc2)[nH]c2ccc(Cl)cc2c1=O | > 100 µM |
